# credit: paper PMC11676667

- assay method text: Plasma pharmacokinetics after single oral dose of Δ8-THCV in MCT oil (LC-MS/MS, non-compartmental analysis)
- Format: in vivo, human
- assay conditions: human, plasma, po, 200 mg, 200 mg single oral Δ8-THCV in MCT oil; Median (Range)
readout kind: log10(Cmax) (log10 of the value in ng/mL)

- compound: "CCCCCc1cc(O)c2c(c1)OC(C)(C)[C@@H]1CC=C(C(=O)O)CC21 (single isomer, unassigned; (+)) [Δ8-THC-COOH, (+)-11-nor-Δ8-THC-9-carboxylic acid]"
  result number: 0.40
- compound: "CCCc1cc(O)c2c(c1)OC(C)(C)[C@@H]1CC=C(C(=O)O)C[C@@H]21"
  result number: 3.28
- compound: "CCCc1cc(O)c2c(c1)OC(C)(C)[C@@H]1CCC(C(=O)O)=C[C@@H]21"
  result number: 1.68
- compound: "CCCc1cc(O)c2c(c1)OC(C)(C)[C@@H]1CCC(C)=C[C@@H]21 [Δ9-THCV, Δ9-tetrahydrocannabivarin]"
  result number: 0.23
- compound: "CCCc1cc(O)c2c(c1)OC(C)(C)[C@@H]1CC=C(CO)C[C@@H]21 (racemic) [11-OH-Δ8-THCV, (±)-11-hydroxy-Δ8-THCV]"
  result number: 0.81
- compound: "CCCc1cc(O)c2c(c1)OC(C)(C)[C@@H]1CC=C(C)C[C@@H]21 [Δ8-THCV, Δ8-tetrahydrocannabivarin]"
  result number: 1.71
